Test system: CD2F1 mice, L1210 leukemia ip, survival T/C
Experiment: NCI In Vivo Anticancer Drug Screen. Data for tumor model L1210 Leukemia (intraperitoneal) in CD2F1 (CDF1) mice
Settings: endpoint: mean survival time; dose: 400.0 mg/kg/injection; schedule: Q01DX009 (ip); vehicle: saline with Tween-80; higher = longer survival
Inconclusive results and toxic doses are left out.
MEASURED_PARAMETER: T/C

Value wanted: T/C (CD2F1 mice, L1210 leukemia ip, survival T/C) of entry CC1CCC(C(O)(C(=O)c2ccccc2)c2ccccc2)C(=O)C1 (stereo unspecified)
98 % of control

# value lookup — system CD2F1 mice, L1210 leukemia ip, survival T/C, readout T/C, item COC(=O)N1c2ccc(OC)cc2C=CC1C#N (stereo unspecified)
103 % of control

* * *

Measured T/C, listed per entry.
Tested on: CD2F1 mice, L1210 leukemia ip, survival T/C
Test: NCI In Vivo Anticancer Drug Screen. Data for tumor model L1210 Leukemia (intraperitoneal) in CD2F1 (CDF1) mice
Details: endpoint: mean survival time; dose: 100.0 mg/kg/injection; schedule: Q01DX001 (ip); vehicle: Klucel (hydroxypropylcellulose) (HPC); higher = longer survival
Inconclusive results and toxic doses are left out.

These recorded examples may help you get a feel for the data.
Cc1cc(Cl)ccc1N=Cc1ccc2c(c1)OCO2; 95 % of control
Nc1ccc(C(=O)O)cc1S(=O)(=O)O; 107 % of control
Clc1cccc(N=Cc2ccc3c(c2)OCO3)c1Cl; 100 % of control
CN(C)Nc1cc(N)c(N=Nc2ccccc2)c(=O)[nH]1; 107 % of control
NNC(=O)CNc1cccc(Br)c1; 102 % of control

Find T/C (CD2F1 mice, L1210 leukemia ip, survival T/C) for the entry O=c1ccc2cc(Cl)cc([N+](=O)[O-])c2o1
102 % of control

Kindly state the measured T/C obtained for CCCC1C(=O)N=C(N)NC1=O (centres undefined) with CD2F1 mice, L1210 leukemia ip, survival T/C.
97 % of control

Please tell me: T/C of CCOC(=O)C1(C(=O)OCC)C(C)CC(O)N1C(=O)c1cc2c(cc1[N+](=O)[O-])OCO2 (centres undefined) , system CD2F1 mice, L1210 leukemia ip, survival T/C?
100 % of control

Param readout = T/C; param system = CD2F1 mice, L1210 leukemia ip, survival T/C; param query = COc1cccc(NC(=S)NC(Cc2ccccc2)c2ccccc2)c1 (centres undefined) ; response: value
101 % of control

* * *

Test system: CD2F1 mice, L1210 leukemia ip, survival T/C
Experiment: NCI In Vivo Anticancer Drug Screen. Data for tumor model L1210 Leukemia (intraperitoneal) in CD2F1 (CDF1) mice
Settings: endpoint: mean survival time; dose: 100.0 mg/kg/injection; schedule: Q04DX002 (ip); vehicle: saline; higher = longer survival
Inconclusive results and toxic doses are left out.
MEASURED_PARAMETER: T/C

CCCCN(CCCC)P1(=O)OCCO1; 103 % of control
CNC1CC2CCC1(C)C2(C)C (stereo unspecified); 96 % of control
CCCCOP(=O)(OCCCC)OC(=C(Cl)Cl)P(=O)(OCCCC)OCCCC; 89 % of control
Cc1cccc(CC(C)O)n1 (stereo unspecified); 93 % of control
CC1CCOC(C)(C)O1 (stereo unspecified); 100 % of control
CC1=NCCCN=C(C)CC[N-]CCC[N-]CC1.[Ni+2].[O-][Cl+3]([O-])([O-])O; 124 % of control
NCC1CCNCC1; 91 % of control
CC1CCC(=O)O1 (stereo unspecified); 98 % of control

State the recorded T/C for this entry: CC(=O)NCC(O)(C1CC1)C1CC1
102 % of control

# lookup: T/C of O=CN1CCCCC1
97 % of control

So what's the measured T/C for this one? NC(=S)c1ncn(C2OC(CO)C(O)C2O)c1N (stereo unspecified)
115 % of control

meta.source: PubChem BioAssay AID256
